Tested on: JCK
experiment summary: qHTS profiling for inhibitors of Plasmodium falciparum proliferation (AID 504749);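 note: 0% = DMSO vehicle and full inhibition = artemisinin control; nearly all actives have a fitted effect of over 60% in size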
test parameters: P. falciparum in erythrocytes, SYBR Green DNA, 72 h; series mostly up to 28.7 µM
Records with an inconclusive call do not appear. Active and inactive are the calls of the source. Calls come from the whole dose curve; as a rule, active = well fitted inhibition curve with a large enough effect; inconclusive = small, poorly fitted or top-dose-only effect; inactive = flat fitted curve, though single readings scatter.
Mark one answer only. Choices: active, inactive

INSERT INTO assay_data (molecule, category) VALUES
  ('FC(F)OC(F)(F)C(F)Cl (configuration not stated)', 'inactive');

Request: Look up the recorded call for O=C1CCCCC1CN1CCCCC1 (configuration not stated) in this test.
Response: inactive

Request: Look up the recorded call for CCCCCCCCOC(=O)c1ccccc1C(=O)OCCCCCCCC in this test.
Response: inactive

Request: Look up the recorded call for O=C(OCCN1CCCCC1)C(O)(c1ccccc1)c1ccccc1 in this test.
Response: inactive

Request: Look up the recorded call for CC12NC(Cc3ccccc31)c1ccccc12 (configuration not stated) in this test.
Response: inactive

Request: Look up the recorded call for O=C(CS(=O)C(c1ccccc1)c1ccccc1)NO (configuration not stated) in this test.
Response: inactive

Request: Look up the recorded call for CCC1(CC)C(=O)NC(=O)N(C)C1=O in this test.
Response: inactive

Request: Look up the recorded call for O=S(=O)(O)c1cc(O)ccc1O in this test.
Response: inactive

Request: Look up the recorded call for CNC(C)C(O)c1ccc(O)cc1 (configuration not stated) in this test.
Response: inactive

Request: Look up the recorded call for [N-]=[N+]=CC(=O)OCC(N)C(=O)O (configuration not stated) in this test.
Response: inactive

Request: Look up the recorded call for CCON=O in this test.
Response: inactive

Request: Look up the recorded call for C=CCN1CC[C@]23c4c5ccc(O)c4O[C@H]2[C@@H](O)C=C[C@H]3[C@H]1C5 in this test.
Response: inactive

Request: Look up the recorded call for C[C@@H](Cc1ccccc1)NCCC(c1ccccc1)c1ccccc1 in this test.
Response: inactive

Request: Look up the recorded call for OC(c1ccccc1)(c1ccccc1)C1CN2CCC1CC2 (configuration not stated) in this test.
Response: inactive

Request: Look up the recorded call for CCC1(c2ccccc2)C(=O)NC(=O)N(C(=O)c2ccccc2)C1=O (configuration not stated) in this test.
Response: inactive

Request: Look up the recorded call for C=CCC1(C(C)CCC)C(=O)N=C(S)NC1=O (configuration not stated) in this test.
Response: inactive

---

experiment summary: Primary qHTS for Vero E6 cytotoxicity: counterscreen for inhibitors of SARS-S pseudo-typed particle cell entry (AID 1479150)
test parameters: cell viability; series mostly up to 57.1 µM
Records with an inconclusive call do not appear. Active and inactive are the calls of the source. The call rests on the fitted dose curve.
Mark one answer only. Choices: active, inactive

INSERT INTO assay_data (molecule, category) VALUES
  ('CC[C@H]1CN2CC[C@H]1C[C@@H]2[C@@H](O)c1ccnc2ccc(OC)cc12', 'inactive'),
  ('O=[N+]([O-])C(Br)(CO)CO', 'inactive');

Request: Look up the recorded call for O=C1C2CC=CCC2C(=O)N1SC(Cl)(Cl)Cl (stereo not given) in this test.
Response: active

Request: Look up the recorded call for C/C(=C\c1csc(C)n1)[C@@H]1C[C@@H]2O[C@]2(C)CCC[C@H](C)[C@H](O)[C@@H](C)C(=O)C(C)(C)[C@@H](O)CC(=O)O1 in this test.
Response: inactive

Request: Look up the recorded call for CCC1C(C)=NN=C(c2ccc(OC)c(OC)c2)c2cc(OC)c(OC)cc21 (stereo not given) in this test.
Response: inactive

Request: Look up the recorded call for C[C@]12CC[C@H](OS(=O)(=O)O)CC1=CC[C@@H]1[C@@H]2CC[C@]2(C)C(=O)CC[C@@H]12 in this test.
Response: inactive

Request: Look up the recorded call for CC(C)CCON=O in this test.
Response: inactive

Request: Look up the recorded call for CN1[C@H]2CC[C@@H]1[C@@H](C(=O)O)[C@@H](OC(=O)c1ccccc1)C2 in this test.
Response: inactive

Request: Look up the recorded call for Oc1ccc2c3c1O[C@H]1[C@@H](O)CC[C@@]4(O)[C@@H](C2)N(CC2CCC2)CC[C@]314 in this test.
Response: inactive

Request: Look up the recorded call for C[C@@H]([C@H](O)c1ccccc1)N(C)C in this test.
Response: inactive

Request: Look up the recorded call for CCCCNCC(O)c1ccc(O)cc1 (stereo not given) in this test.
Response: inactive

Request: Look up the recorded call for CCC(=O)O[C@@](Cc1ccccc1)(c1ccccc1)[C@@H](C)CN(C)C in this test.
Response: inactive

Request: Look up the recorded call for O=S(=O)(O)c1cc(O)ccc1O in this test.
Response: inactive

Request: Look up the recorded call for O=C(C[C@@H]1NCCC[C@H]1O)Cn1cnc2cc(Br)c(Cl)cc2c1=O in this test.
Response: inactive

Request: Look up the recorded call for CC(C)CCC(=O)O[C@H]1CC[C@H]2[C@@H]3CCC4=CC(=O)CC[C@]4(C)[C@H]3CC[C@]12C in this test.
Response: inactive

---

experiment summary: Cell Viability - SH-SY5Y (AID 544);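 note: cells exposed to compound for 40 hours; nearly all actives have a fitted effect of over 55% in size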
test parameters: SH-SY5Y neuroblastoma cell viability; series mostly up to 92.2 µM
Results filed as inconclusive are left out. Active and inactive are the calls of the source. The call rests on the fitted dose curve; in most records, active means well fitted cell-killing curve with a large enough effect; inconclusive means small, poorly fitted or top-dose-only effect; inactive means flat fitted curve, though single readings scatter.
Mark one answer only. Choices: active, inactive

Consider the following illustrative entries.
INSERT INTO results (smiles_structure, category) VALUES
  ('[O]=[Cd]', 'inactive'),
  ('Clc1ccccc1Cl', 'inactive');

Request: Look up the recorded call for CCCCCl in this test.
Response: inactive

Request: Look up the recorded call for O=[N+]([O-])c1ccccc1 in this test.
Response: inactive

Request: Look up the recorded call for COC1=CC(=O)O[C@@H](/C=C/c2ccccc2)C1 in this test.
Response: inactive

Request: Look up the recorded call for S=C=S in this test.
Response: inactive

Request: Look up the recorded call for C[C@]12CCC(=O)C[C@@H]1CC[C@@H]1[C@@H]2CC[C@]2(C)[C@@H](O)CC[C@@H]12 in this test.
Response: inactive

Request: Look up the recorded call for O=Cc1ccco1 in this test.
Response: inactive

Request: Look up the recorded call for [Cl-].[Cl-].[Hg+2] in this test.
Response: active

Request: Look up the recorded call for ClC=C(Cl)Cl in this test.
Response: inactive

Request: Look up the recorded call for O=C/C=C/c1ccccc1 in this test.
Response: inactive

---

Test system: JEG-3
experiment summary: Primary qHTS to identify gynecologic anti-cancer compounds using libraries of approved drugs and bioactive compounds (AID 1345084); note: % is set by controls: 0 for no effect and ±100 for the full control effect; nearly all actives have a fitted effect of over 55% in size
test parameters: Gynecologic cancer cell panel viability, ATPlite luminescence, 48 h; series mostly up to 57.5 µM
Results filed as inconclusive are left out. Active and inactive are the calls of the source. Calls come from the whole dose curve; as a rule, active = well fitted cell-killing curve with a large enough effect; inconclusive = small, poorly fitted or top-dose-only effect, or effect the other way; inactive = flat fitted curve, though single readings scatter.
measurement name: activity change, negative = cytotoxicity

Illustrative cases are given below, each with its answer.
INSERT INTO assay_data (compound, measurement_name, observed_measurement) VALUES
  ('Clc1ccc(OCC2=NCCN2)cc1Cl', 'activity change, negative = cytotoxicity', 'inactive'),
  ('COc1cc(CCNCc2ccccc2O)c(OC)cc1C#N', 'activity change, negative = cytotoxicity', 'inactive'),
  ('CCC1NC(=O)C2C(Cl)C(Cl)CN2C(=O)C(C(C)O)NC(=O)CC(c2ccccc2)NC(=O)C(CO)NC1=O (stereo unspecified)', 'activity change, negative = cytotoxicity', 'inactive'),
  ('CN1[C@H]2C[C@H](OC(=O)[C@H](CO)c3ccccc3)C[C@@H]1[C@@H](O)C2', 'activity change, negative = cytotoxicity', 'inactive'),
  ('COc1ccccc1CN[C@H]1C2CCN(CC2)[C@H]1C(c1ccccc1)c1ccccc1', 'activity change, negative = cytotoxicity', 'inactive'),
  ('CCc1c(C(=O)C(N)=O)c2c(OCC(=O)OC)cccc2n1Cc1ccccc1', 'activity change, negative = cytotoxicity', 'inactive'),
  ('CC(=O)OC12C(O)C(C)C3(O)C4C=C(C)C(=O)C4CC(CO)=CC3C1C2(C)C (stereo unspecified)', 'activity change, negative = cytotoxicity', 'inactive'),
  ('N#CC(OC1OC(COC2OC(CO)C(O)C(O)C2O)C(O)C(O)C1O)c1ccccc1 (stereo unspecified)', 'activity change, negative = cytotoxicity', 'inactive'),
  ('C/C=C(\C)C(=O)O[C@H]1[C@H](OC(C)=O)[C@]2(CO)[C@H](O)[C@H](O)[C@]3(C)C(=CCC4[C@@]5(C)CC[C@H](O[C@@H]6O[C@H](C(=O)O)[C@@H](O)[C@H](O[C@@H]7OC[C@H](O)[C@H](O[C@@H]8OC[C@H](O)[C@H](O)[C@H]8O)[C@H]7O)[C@H]6O[C@@H]6O[C@H](CO)[C@@H](O)[C@H](O)[C@H]6O)C(C)(C)C5CC[C@]43C)[C@@H]2CC1(C)C (stereo partly specified)', 'activity change, negative = cytotoxicity', '-2.67% [at 6.55 µM] (inactive)'),
  ('Cc1cccc(NC(=O)N[C@@H]2N=C(c3ccccc3)c3ccccc3N(C)C2=O)c1', 'activity change, negative = cytotoxicity', 'inactive');

Request: Please look up its activity change, negative = cytotoxicity: COC(=O)C1(C)CCC(O)C2(C)c3c(O)cc(C(C)C)cc3C(O)C(OC(C)=O)C12 (stereo unspecified)
Response: inactive

Request: Please look up its activity change, negative = cytotoxicity: COC(=O)C1(C)CCC(=O)C2(C)c3c(O)cc(C(C)C)cc3C(O)C(OC(C)=O)C12 (stereo unspecified)
Response: inactive

Request: Please look up its activity change, negative = cytotoxicity: CC(C)C1(OO)C=C2C(=O)CC3C(C)(C(=O)O)CCCC3(C)C2CC1 (stereo unspecified)
Response: inactive
